These entries and their values trace back to paper PMC8170132.

# systemName: HLA-B*57:01 (Homo sapiens, UniProt P01889, D201E/D98Y/E176V/E187L/E204Q/E69M/E70A/G107R/I90N/K202T/L105A/L119I/N104I/N87E/Q89R/Q94S/R106L/R155S/R180L/R86G/S101N/S121V/S35A/S48A/T118I/V36M/Y140S/Y91M)
# experimentDescription: LC-MRM-MS quantitation of HLA ligands and co-purified abacavir from abacavir treated C1R.B*57:01 cells
# Format: cell-based
# statedConditions: linear regression of LC-MRM-MS peptide abundance over abacavir treatment time
readoutLabel: Linear regression slope
API doc: respond with a numeric literal and nothing else, no unit.

Solved cases (3 shown):
[
  {
    "biopolymerSequence": "ITAGAHRLW",
    "recordedMeasurement": 0.0136
  },
  {
    "biopolymerSequence": "VTTDIQVKV",
    "recordedMeasurement": 0.0428
  },
  {
    "biopolymerSequence": "YTDNLVRVW [HLA-B*57:01 ligand derived from RACK1]",
    "recordedMeasurement": -0.0088
  }
]

Qu. Item under review: RVDPAKGLFYF [non-labelled HLA-B*57:01 ligand] . Reported Linear regression slope?
Ans. -0.0245

Qu. Item under review: `KTLEGEFSV` . Reported Linear regression slope?
Ans. 0.0463

Qu. Item under review: `KSIARVLTV` . Reported Linear regression slope?
Ans. 0.0347

Qu. Item under review: `ITNADSATRLL` . Reported Linear regression slope?
Ans. -0.0254

Qu. Item under review: `KSIFVFTHV` . Reported Linear regression slope?
Ans. 0.0498

Qu. Item under review: `TFDDIVHSF` . Reported Linear regression slope?
Ans. 0.0142

Qu. Item under review: `GTYQDVGSLNI` . Reported Linear regression slope?
Ans. 0.0429

Qu. Item under review: NTVELRVKI [non-labelled HLA-B*57:01 ligand] . Reported Linear regression slope?
Ans. 0.0281

Qu. Item under review: `LSQEQLRQW` . Reported Linear regression slope?
Ans. 0.0083
